experiment: Photostability in solution in a chemical solvent (Suntest CPS+); format: physicochemical; conditions: 25 μg deposited from methanol, Suntest irradiation 10 MED, absorbance vs non-irradiated control; in % (unit assumed)
MEASUREMENT_KIND: Photostability at 10 MED, mean
Format: numeric value only, no unit, no commentary.

Sample records with Photostability at 10 MED, mean:
CCCCCCCCCCCCc1ccc(-c2nnc(-c3ccc(-c4nnc(-c5ccc(CCCCCCCCCCCC)cc5)c(-c5ccc(CCCCCCCCCCCC)cc5)n4)cc3)nc2-c2ccc(CCCCCCCCCCCC)cc2)cc1 [WP107] | 84.75
CC(C)(C)c1ccc(-c2nnc(-c3ccc(-c4nnc(-c5ccc(C(C)(C)C)cc5)c(-c5ccc(C(C)(C)C)cc5)n4)cc3)nc2-c2ccc(C(C)(C)C)cc2)cc1 [WP104] | 88.55
c1ccc(-c2nnc(-c3ccc(-c4nnc(-c5ccccc5)c(-c5ccccc5)n4)cc3)nc2-c2ccccc2)cc1 [WP30] | 56.12

# context switch: different compound, same Photostability at 10 MED, mean
The recorded Photostability at 10 MED, mean for CCCCCC[C@H](C)Oc1ccc(-c2nnc(-c3ccc(-c4nnc(-c5ccc(O[C@@H](C)CCCCCC)cc5)c(-c5ccc(O[C@@H](C)CCCCCC)cc5)n4)cc3)nc2-c2ccc(O[C@@H](C)CCCCCC)cc2)cc1 [WP149] is 38.16

----------
assay: Spectral characteristics: molar extinction coefficient and specific absorbance (UV spectrophotometry in ethyl acetate); type: physicochemical; conditions: A1cm^1%, 10 μg/ml, UVA band
MEASUREMENT_KIND: Maximum specific absorbance UVA
Format: numeric value only, no unit, no commentary.

CCCCC(CC)COc1ccc(-c2nc(-c3ccc(OC)cc3)nc(-c3ccc(OCC(CC)CCCC)cc3O)n2)c(O)c1 (centres unmarked) [Tinosorb S ®, reference compound] | 789

# context switch: different compound, same Maximum specific absorbance UVA
The recorded Maximum specific absorbance UVA for CCCCCCCCCCCCc1ccc(-c2nnc(-c3ccc(-c4nnc(-c5ccc(CCCCCCCCCCCC)cc5)c(-c5ccc(CCCCCCCCCCCC)cc5)n4)cc3)nc2-c2ccc(CCCCCCCCCCCC)cc2)cc1 is 783

----------
test: Spectral characteristics: molar extinction coefficient and specific absorbance (UV spectrophotometry in ethyl acetate); format: physicochemical; conditions: A1cm^1%, 10 μg/ml, UVA band
The entries below are paired with their reported Maximum specific absorbance UVA.
Format: numeric value only, no unit, no commentary.

CC(C)(C)CC(C)(C)c1cc(Cc2cc(C(C)(C)CC(C)(C)C)cc(-n3nc4ccccc4n3)c2O)c(O)c(-n2nc3ccccc3n2)c1 [Tinosorb M ®, reference compound] | 552
COc1ccc(C(=O)CC(=O)c2ccc(C(C)(C)C)cc2)cc1 [Parsol 1789 ®, reference compound] | 1100

The recorded Maximum specific absorbance UVA for Cc1ccc(-c2nnc(-c3ccc(-c4nnc(-c5ccc(C)cc5)c(-c5ccc(C)cc5)n4)cc3)nc2-c2ccc(C)cc2)cc1 [WP39] is 808
